- ASSAY_SYSTEM: recombinant PI3K δ enzyme (Homo sapiens (Human), UniProt O00329)
- Sequence (O00329 whole entry, species assumed): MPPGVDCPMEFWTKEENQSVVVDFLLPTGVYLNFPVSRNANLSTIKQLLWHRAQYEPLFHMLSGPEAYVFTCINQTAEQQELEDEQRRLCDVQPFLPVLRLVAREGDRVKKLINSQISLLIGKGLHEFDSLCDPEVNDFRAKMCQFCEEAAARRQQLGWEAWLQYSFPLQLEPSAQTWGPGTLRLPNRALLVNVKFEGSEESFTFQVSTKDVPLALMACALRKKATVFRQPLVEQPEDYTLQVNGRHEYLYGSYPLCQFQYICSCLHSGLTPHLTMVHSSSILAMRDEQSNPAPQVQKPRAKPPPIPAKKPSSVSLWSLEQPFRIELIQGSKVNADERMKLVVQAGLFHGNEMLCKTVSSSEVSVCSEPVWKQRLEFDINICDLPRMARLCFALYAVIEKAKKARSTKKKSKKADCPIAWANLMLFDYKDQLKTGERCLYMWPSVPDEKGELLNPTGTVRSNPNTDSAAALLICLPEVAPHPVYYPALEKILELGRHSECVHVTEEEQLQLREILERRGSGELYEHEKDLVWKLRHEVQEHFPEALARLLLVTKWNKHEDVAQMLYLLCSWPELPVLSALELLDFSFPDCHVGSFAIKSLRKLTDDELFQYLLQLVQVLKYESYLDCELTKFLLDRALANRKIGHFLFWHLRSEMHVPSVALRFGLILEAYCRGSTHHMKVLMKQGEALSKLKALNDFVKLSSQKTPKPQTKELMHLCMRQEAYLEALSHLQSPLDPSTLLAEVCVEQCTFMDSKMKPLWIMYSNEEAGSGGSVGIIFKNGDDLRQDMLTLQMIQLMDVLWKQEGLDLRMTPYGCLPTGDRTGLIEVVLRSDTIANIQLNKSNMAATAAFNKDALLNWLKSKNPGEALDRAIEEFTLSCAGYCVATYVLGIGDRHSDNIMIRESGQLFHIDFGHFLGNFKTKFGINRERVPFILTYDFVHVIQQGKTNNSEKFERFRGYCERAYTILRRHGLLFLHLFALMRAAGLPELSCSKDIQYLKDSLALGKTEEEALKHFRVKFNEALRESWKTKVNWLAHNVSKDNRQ
- Sequence (P27986 whole entry partner, species assumed): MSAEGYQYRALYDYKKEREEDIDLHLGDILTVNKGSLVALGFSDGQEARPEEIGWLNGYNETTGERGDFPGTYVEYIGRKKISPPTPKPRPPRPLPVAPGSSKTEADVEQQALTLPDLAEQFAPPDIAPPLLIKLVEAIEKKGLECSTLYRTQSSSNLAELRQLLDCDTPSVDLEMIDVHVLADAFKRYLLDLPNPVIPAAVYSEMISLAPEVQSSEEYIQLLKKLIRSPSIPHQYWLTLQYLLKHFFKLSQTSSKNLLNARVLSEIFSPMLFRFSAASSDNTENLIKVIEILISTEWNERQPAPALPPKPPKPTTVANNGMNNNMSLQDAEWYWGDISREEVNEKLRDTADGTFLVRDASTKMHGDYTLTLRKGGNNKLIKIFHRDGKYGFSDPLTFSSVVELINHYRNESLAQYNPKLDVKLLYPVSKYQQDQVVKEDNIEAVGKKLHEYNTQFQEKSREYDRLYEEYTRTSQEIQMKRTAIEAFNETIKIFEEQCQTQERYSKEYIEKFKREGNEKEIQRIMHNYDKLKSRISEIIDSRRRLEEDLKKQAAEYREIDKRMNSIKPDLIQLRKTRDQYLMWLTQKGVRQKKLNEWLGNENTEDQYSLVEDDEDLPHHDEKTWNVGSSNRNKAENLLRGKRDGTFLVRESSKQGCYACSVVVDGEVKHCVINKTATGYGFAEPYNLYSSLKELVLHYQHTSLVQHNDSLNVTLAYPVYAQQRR
- PROCEDURE_DETAILS: In vitro enzyme assay (Kinase-Glo luminescent kinase assay), PI3Kδ
- Type: biochemical
pIC50: −log10 of the molar value.
ASSAY_READOUT: pIC50

Known results for compounds:
• Cn1cc(-c2nc3[nH]c(C(=O)NCCCN4CCOCC4)nc3c(N3CCOCC3)c2F)cn1 [compound 124] = 7.77
• Cn1cc(-c2nc3[nH]c(C(=O)N4CCN(C5CCOCC5)CC4)nc3c(N3CCOCC3)c2F)cn1 [compound 81] = 8.15

a = O=C(c1nc2c(N3CCOCC3)c(F)c(-c3c[nH]nc3C(F)(F)F)nc2[nH]1)N1CCC(N2CCOCC2)CC1 [compound 123]
b = Cn1cc(-c2nc3[nH]c(C(=O)N4CCC(N5CCOCC5)CC4)nc3c(N3CCOCC3)c2Cl)cn1 [compound 92]
Of a versus b , which is the one with smaller reported pIC50? State your choice using its label.
b
